Hey, just so you know, these numbers are from patent US4305944A.

- measurement-description: ALD50 for rats
- condition-description: rat, in vivo, oral dose of the catalepsy test
- Method: That dose of Compound No. 7, however, constituted the ALD50 dose for rats. In mice the ALD50 of Compound No. 7 was determined to be 500 mg/kg. of body weight.
quantity-measured: LD50
Report as: number unit

Recorded result, COc1cccnc1N1CCN(CCCCN2C(=O)CC3(CCCC3)CC2=O)CC1 , LD50: 200 mg/kg

###

Task for the reader: assign each of the following compounds its reported ED50.
- measurement-description: Test IV: spontaneous motor activity, activity cage mouse treated intraperitoneally (CNS depression)
- Assay type: in vivo
- condition-description: in vivo, ip; Test IV; activity cage mouse, intraperitoneal; reflects approximately 50% reduction in spontaneous motor activity; read-out: AED-0.3
Expressed in mg/kg, but write only the number.

Recorded result, COc1cccc(N2CCN(CCCN3C(=O)CC4(CCCC4)CC3=O)CC2)n1 , ED50: 7.4

Recorded result, O=C1CC2(CCCC2)CC(=O)N1CCN1CCN(c2ccccn2)CC1 , ED50: 41

Recorded result, O=C1CC2(CCCC2)CC(=O)N1CCCCN1CCN(c2ccccn2)CC1 , ED50: 2.6

Recorded result, CN(C)CCCN1c2ccccc2Sc2ccc(Cl)cc21 , ED50: 3.6

###

- measurement-description: Test IV: spontaneous motor activity, activity cage mouse treated intraperitoneally (CNS depression)
- Type: in vivo
- condition-description: mouse, in vivo, ip
quantity-measured: ED50 (mg/kg)
Expressed in mg/kg, but write only the number.

Recorded result, O=C1CC2(CCCC2)CC(=O)N1CCCCN1CCN(c2ncccn2)CC1 , ED50: 33

###

- measurement-description: in vivo
- condition-description: mouse, po
quantity-measured: ED50 (mg/kg)
Expressed in mg/kg, but write only the number.

Recorded result, O=C1CC2(CCCC2)CC(=O)N1CCCCN1CCN(c2ncccn2)CC1 , ED50: 92
